Molecular target: fMet-Leu-Phe receptor (Homo sapiens, UniProt P21462)
Sequence (P21462 whole entry): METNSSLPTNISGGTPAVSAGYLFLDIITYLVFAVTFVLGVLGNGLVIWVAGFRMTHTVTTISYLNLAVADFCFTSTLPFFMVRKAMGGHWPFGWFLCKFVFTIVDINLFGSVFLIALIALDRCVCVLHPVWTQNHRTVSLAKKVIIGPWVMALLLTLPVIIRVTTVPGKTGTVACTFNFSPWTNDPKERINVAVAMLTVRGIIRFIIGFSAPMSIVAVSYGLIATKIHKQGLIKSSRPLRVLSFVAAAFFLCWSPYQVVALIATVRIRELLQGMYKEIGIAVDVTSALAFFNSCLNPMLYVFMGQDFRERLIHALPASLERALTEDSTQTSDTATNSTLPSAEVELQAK
Experiment: Agonist activity at FPR1 expressed in human HL60 cells assessed as induction of intracellular calcium flux by FLIPR3 calcium assay
Format: functional, cell-based, HL-60
Conditions: read-out: EC50
property name: EC50
# include the unit after the value

Ask: Answer with the recorded EC50 for the molecule listed here: "COc1cccc(Cc2cc(C)nn(CC(=O)Nc3ccc4c(c3)OCO4)c2=O)c1"
Result: 2300 nM
